# ASSAY COMMENT: Pharmacokinetics assay in mice
# Assay type: in vivo
# TEST CONDITIONS: mouse, po; C57 mice (female), intragastric, 2 mg/kg, plasma; read-out: Residence time MRT
PROPERTY NAME: MRT (h)

>  <COMPOUND>
Nc1nnc(-c2cc(F)c3ncccc3c2)c(-c2ccccc2)n1 [Example 2]

>  <MRT / h>
1.79

$$$$
>  <COMPOUND>
Cc1ccnc2ccc(-c3nnc(N)nc3-c3ccc(F)cc3)cc12 [Example 18]

>  <MRT / h>
1.43

$$$$
>  <COMPOUND>
Cc1ncnc2ccc(-c3nnc(N)nc3-c3ccc(F)cc3)cc12 [Example 19]

>  <MRT / h>
3.13

$$$$
>  <COMPOUND>
CCc1ccnc2ccc(-c3nnc(N)nc3-c3ccc(F)cc3)cc12 [Example 44]

>  <MRT / h>
0.85

$$$$
>  <COMPOUND>
Cc1ccnc2ccc(-c3nnc(N)nc3-c3ccccc3F)cc12 [Example 17]

>  <MRT / h>
1.17

$$$$

(P) Cc1ccnc2c(F)cc(-c3nnc(N)nc3-c3ccc(F)cc3)cc12 [Example 20]
(Q) Cc1ccnc2c(F)cc(-c3nnc(N)nc3-c3ccccc3F)cc12 [Example 31]
From the recorded data, which exceeds the other in MRT: P or Q ? Indicate your choice by writing its label.
Q
(Q: 2.02 h, P: 1.41 h)

###

# TARGET: adenosine A2b receptor (A2bR) (Homo sapiens, UniProt P29275)
# Construct: expressed in transfected cells; host or cells: CHO-K1
# Sequence (P29275 whole entry): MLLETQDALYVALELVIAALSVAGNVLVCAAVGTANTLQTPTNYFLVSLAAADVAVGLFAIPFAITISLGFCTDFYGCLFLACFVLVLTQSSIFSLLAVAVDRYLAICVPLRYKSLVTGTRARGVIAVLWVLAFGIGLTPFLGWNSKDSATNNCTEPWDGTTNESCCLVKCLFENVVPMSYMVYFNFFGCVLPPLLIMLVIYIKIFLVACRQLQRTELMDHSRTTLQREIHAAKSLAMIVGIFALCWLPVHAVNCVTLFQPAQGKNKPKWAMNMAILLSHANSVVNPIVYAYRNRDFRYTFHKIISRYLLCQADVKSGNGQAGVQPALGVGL
# ASSAY COMMENT: Inhibition of the adenosine A2b receptor cAMP signaling pathway in CHO-K1/A2bR cells (HTRF)
# Type: cell-based
# TEST CONDITIONS: ethyl carbazole 1 μM, Table 2
PROPERTY NAME: IC50 (nM)

>  <MOLECULE>
Cc1ncnc2c(F)cc(-c3nnc(N)nc3-c3ccccc3)cc12 [Example 45]

>  <IC50 / nM>
25

$$$$
>  <MOLECULE>
Cc1ncnc2ccc(-c3nnc(N)nc3-c3ccccc3)cc12 [Example 15]

>  <IC50 / nM>
7

$$$$
>  <MOLECULE>
Cc1ccnc2c(F)cc(-c3nnc(N)nc3-c3ccccc3)cc12 [Example 16]

>  <IC50 / nM>
18

$$$$
>  <MOLECULE>
Nc1nnc(-c2cc(Cl)c3ncccc3c2)c(-c2ccccc2)n1 [Example 4]

>  <IC50 / nM>
4

$$$$

(A) COc1cc(-c2nnc(N)nc2-c2ccccc2)cc2cccnc12 [Example 25]
(B) [2H]C([2H])([2H])c1ccnc2ccc(-c3nnc(N)nc3-c3ccc(F)cc3)cc12 [Example 22]
Between A and B , which one shows the larger IC50 value? Provide the label of your selected option as the answer.
B
(B: 7 nM, A: 4 nM)

(1) Cc1ccnc2ccc(-c3nnc(N)nc3-c3ccccc3)cc12 [Example 14]
(2) Cc1ccnc2ccc(-c3nnc(N)nc3-c3ccccc3F)cc12 [Example 17]
(3) Nc1nnc(-c2ccc3ncccc3c2)c(-c2ccccc2)n1 [Example 3]
(4) [2H]C([2H])([2H])c1ncnc2ccc(-c3nnc(N)nc3-c3ccc(F)cc3)cc12 [Example 52]
Kindly order the items shown according to IC50, from the highest value down. Answer format: list of labels, ordered as asked.
3, 2, 4, 1
(3: 47 nM, 2: 22 nM, 4: 14 nM, 1: 3 nM)

(1) Cc1ncnc2ccc(-c3nnc(N)nc3-c3ccc(F)cc3)cc12 [Example 19]
(2) COc1ccnc2ccc(-c3nnc(N)nc3-c3ccccc3)cc12 [Example 23]
(3) Cc1ccc(-c2nc(N)nnc2-c2cc(C)c3ncccc3c2)o1 [Example 5]
Provide the items ranked by increasing IC50. State the ranking by listing the labels in the requested order.
2, 1, 3

###

# TARGET: adenosine A2a receptor (A2aR) (Homo sapiens)
# Construct: expressed in transfected cells; host or cells: CHO-K1
# ASSAY COMMENT: Inhibition of the adenosine A2a receptor cAMP signaling pathway in CHO-K1/A2aR cells (HTRF)
# Assay type: cell-based
# TEST CONDITIONS: CHO-K1/A2aR cells, cAMP, NECA 20 nM; Table 1
PROPERTY NAME: IC50 (nM)

>  <GIVEN SMILES>
Nc1nnc(-c2ccc3nccc(C4CC4)c3c2)c(-c2ccc(F)cc2)n1

>  <IC50, nM>
2.5

$$$$
>  <GIVEN SMILES>
Nc1nnc(-c2ccc3nccc(C(F)F)c3c2)c(-c2ccc(F)cc2)n1

>  <IC50, nM>
3.5

$$$$
>  <GIVEN SMILES>
Cc1cnc2ccc(-c3nnc(N)nc3-c3ccccc3)cc2c1

>  <IC50, nM>
3

$$$$
>  <GIVEN SMILES>
Nc1nnc(-c2ccc3ncncc3c2)c(-c2ccccc2)n1

>  <IC50, nM>
3.5

$$$$

###

# TARGET: adenosine A2a receptor (A2aR) (Homo sapiens)
# Construct: expressed in transfected cells; host or cells: CHO-K1
# ASSAY COMMENT: Inhibition of the adenosine A2a receptor cAMP signaling pathway in CHO-K1/A2aR cells (HTRF)
# Type: cell-based
# TEST CONDITIONS: CHO-K1/A2aR cells, cAMP, 20 nM; Table 1
PROPERTY NAME: IC50 (nM)

(1) [2H]C([2H])([2H])c1ncnc2ccc(-c3nnc(N)nc3-c3ccc(F)cc3)cc12 [Example 52]
(2) Cc1ncnc2ccc(-c3nnc(N)nc3-c3ccc(F)cc3)cc12 [Example 19]
Which has the higher IC50, 1 or 2 ? Answer = label.
1
(1: 0.9 nM, 2: 0.4 nM)

###

# TARGET: adenosine A2a receptor (A2aR) (Homo sapiens, UniProt P29274)
# Construct: expressed in transfected cells; host or cells: CHO-K1
# Sequence (P29274 whole entry): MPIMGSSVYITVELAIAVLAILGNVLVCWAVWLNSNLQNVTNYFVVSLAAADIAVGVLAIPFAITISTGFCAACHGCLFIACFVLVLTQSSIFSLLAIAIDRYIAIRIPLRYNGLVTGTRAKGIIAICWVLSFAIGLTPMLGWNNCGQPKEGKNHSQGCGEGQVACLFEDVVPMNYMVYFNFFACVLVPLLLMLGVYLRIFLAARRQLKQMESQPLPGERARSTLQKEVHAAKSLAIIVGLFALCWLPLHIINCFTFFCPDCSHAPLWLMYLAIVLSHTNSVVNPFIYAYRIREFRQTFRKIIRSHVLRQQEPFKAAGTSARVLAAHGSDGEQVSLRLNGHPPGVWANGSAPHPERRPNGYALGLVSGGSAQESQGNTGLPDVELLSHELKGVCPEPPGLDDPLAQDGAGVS
# ASSAY COMMENT: Inhibition of the adenosine A2a receptor cAMP signaling pathway in CHO-K1/A2aR cells (HTRF)
# Format: cell-based
# TEST CONDITIONS: CHO-K1/A2aR cells, cAMP, NECA 20 nM; Table 1
PROPERTY NAME: IC50 (nM)

>  <GIVEN SMILES>
Cc1ccc(-c2nc(N)nnc2-c2cc(C)c3ncccc3c2)o1

>  <PROPERTY NAME>
IC50

>  <EXPERIMENTAL RESULT>
0.4

$$$$
>  <GIVEN SMILES>
Cc1ccnc2c(F)cc(-c3nnc(N)nc3-c3ccc(F)cc3)cc12

>  <PROPERTY NAME>
IC50

>  <EXPERIMENTAL RESULT>
1.5

$$$$

(P) Cc1ncnc2ccc(-c3nnc(N)nc3-c3ccc(Cl)cc3)cc12
(Q) Cc1ncnc2c(F)cc(-c3nnc(N)nc3-c3ccc(F)cc3)cc12
(R) [2H]C([2H])([2H])c1ccnc2ccc(-c3nnc(N)nc3-c3ccc(F)cc3)cc12
Output the entries ranked by IC50 from maximum down to minimum. # the answer lists labels in the order requested
Q, P, R

###

# ASSAY COMMENT: Pharmacokinetics assay in mice
# Format: in vivo
# TEST CONDITIONS: mouse, po; C57 mice (female), intragastric, 2 mg/kg, plasma; read-out: Clearance CLz/F
PROPERTY NAME: CL/F (mL/min/kg)

Answered examples (5):
>  <GIVEN SMILES>
Nc1nnc(-c2ccc3ncccc3c2)c(-c2ccccc2)n1

>  <CL/F / mL/min/kg>
78.6

$$$$
>  <GIVEN SMILES>
Cc1ncnc2ccc(-c3nnc(N)nc3-c3ccc(F)cc3)cc12

>  <CL/F / mL/min/kg>
6.61

$$$$
>  <GIVEN SMILES>
Cc1ccnc2ccc(-c3nnc(N)nc3-c3ccc(F)cc3)cc12

>  <CL/F / mL/min/kg>
65

$$$$
>  <GIVEN SMILES>
Nc1nnc(-c2cc(F)c3ncccc3c2)c(-c2ccccc2)n1

>  <CL/F / mL/min/kg>
78.3

$$$$
>  <GIVEN SMILES>
Cc1ccnc2c(F)cc(-c3nnc(N)nc3-c3ccccc3F)cc12

>  <CL/F / mL/min/kg>
95

$$$$

(a) Cc1ccnc2c(F)cc(-c3nnc(N)nc3-c3ccc(F)cc3)cc12
(b) Cc1ccnc2ccc(-c3nnc(N)nc3-c3ccccc3F)cc12
Task for the reader: decide whether a or b has the larger CL/F. Your choice should be expressed through its label.
b

###

# ASSAY COMMENT: Pharmacokinetics assay in mice
# Format: in vivo
# TEST CONDITIONS: mouse, po; C57 mice (female), intragastric, 2 mg/kg, plasma; read-out: Half-life T½ (converted)
PROPERTY NAME: half-life (h)

>  <GIVEN SMILES>
Cc1ccnc2ccc(-c3nnc(N)nc3-c3ccc(F)cc3)cc12

>  <half-life [h]>
1.59

$$$$

(I) Nc1nnc(-c2ccc3ncccc3c2)c(-c2ccccc2)n1
(II) Cc1ccnc2c(F)cc(-c3nnc(N)nc3-c3ccc(F)cc3)cc12
(III) CCc1ccnc2ccc(-c3nnc(N)nc3-c3ccc(F)cc3)cc12
// sort entries: half-life, high to low Provide the labels, sequenced as the question asks.
I, II, III

(P) Nc1nnc(-c2cc(F)c3ncccc3c2)c(-c2ccccc2)n1
(Q) Cc1ccnc2ccc(-c3nnc(N)nc3-c3ccccc3F)cc12
Task for the reader: decide whether P or Q has the larger half-life. Response format: the label of the selected entry.
P
(P: 2.17 h, Q: 1.09 h)
